- Measured On: Beta-secretase (BACE) (Homo sapiens, UniProt Q9Y5Z0+P56817)
- Measurement Protocol: Inhibition of human beta secretase in MBP-C125 assay.
- Format: protein assay
Residues, ends and D or L forms follow the SMILES beside them.
We'd kindly ask you to apply these IC50 classes: low: < 40 nM; medium: ≥ 40 nM and < 300 nM; high: ≥ 300 nM

| Compound | Category Label |
| --- | --- |
| CCCN(CCC)C(=O)c1cccc(C(=O)N[C@@H](Cc2cc(F)cc(F)c2)[C@@H](O)C[C@@H](C)C(=O)NC[C@H]2CC[C@H](C(=O)O)CC2)c1 | low |
| CCCN(CCC)C(=O)c1cccc(C(=O)N[C@@H](Cc2cc(F)cc(F)c2)[C@@H](O)C[C@@H](CC)C(=O)NC[C@H]2CC[C@H](C(=O)O)CC2)c1 | medium |
| CC(C)[C@H](NC(=O)C[C@H](O)[C@H](Cc1cc(F)cc(F)c1)NC(=O)C(O)c1ccccc1-c1ccccc1)C(=O)N[C@H]1C[C@@H](C(=O)O)C[C@@H](C(=O)O)C1 (stereo partly specified) | low |
| CCCN(CCC)C(=O)c1cccc(C(=O)N[C@@H](Cc2cc(F)cc(F)c2)[C@@H](O)C[C@@H](CC)C(=O)NCCCC(=O)O)c1 | high |
| CCCN(CCC)C(=O)c1cccc(C(=O)N[C@@H](Cc2cc(F)cc(F)c2)[C@@H](O)C[C@@H](CC(C)C)C(=O)NC[C@H]2CC[C@H](C(=O)O)CC2)c1 | high |
| CCCN(CCC)C(=O)c1cccc(C(=O)N[C@@H](Cc2cc(F)cc(F)c2)[C@@H](O)CC(=O)N[C@H](C(=O)N[C@H]2C[C@@H](C(=O)O)C[C@@H](C(=O)O)C2)C(C)C)c1 | low |
| CCCN(CCC)C(=O)c1cccc(C(=O)N[C@@H](Cc2cc(F)cc(F)c2)[C@@H](O)C[C@@H](CC)C(=O)NCCCCCCCC(=O)O)c1 | medium |
| CSCC[C@H](NC(=O)[C@@H](NC(=O)OC(C)(C)C)C(C)C)C(=O)N[C@@H](CC(C)C)[C@@H](O)C[C@@H](C)C(=O)N[C@H](C(=O)NCc1ccccc1)C(C)C | low |
| CCCN(CCC)C(=O)c1cccc(C(=O)N[C@@H](Cc2cc(F)cc(F)c2)[C@@H](O)CCC(=O)NC[C@H]2CC[C@H](C(=O)O)CC2)c1 | high |
| CCCN(CCC)C(=O)c1cccc(C(=O)N[C@@H](Cc2cc(F)cc(F)c2)[C@@H](O)C[C@@H](CC)C(=O)N[C@H]2C[C@@H](OC)C[C@@H](OC)C2)c1 | high |
| CCC[C@H](C[C@H](O)[C@H](Cc1cc(F)cc(F)c1)NC(=O)c1cccc(C(=O)N(CCC)CCC)c1)C(=O)NC[C@H]1CC[C@H](C(=O)O)CC1 | medium |
| CCCN(CCC)C(=O)c1cccc(C(=O)N[C@@H](Cc2cc(F)cc(F)c2)[C@@H](O)C[C@@H](CC)C(=O)NCCCCCC(=O)O)c1 | medium |
| CCCN(CCC)C(=O)c1cccc(C(=O)N[C@@H](Cc2cc(F)cc(F)c2)[C@@H](O)C[C@@H](CC)C(=O)NCCC(=O)O)c1 | high |
| CCCN(CCC)C(=O)c1cccc(C(=O)N[C@@H](Cc2cc(F)cc(F)c2)[C@@H](O)C[C@@H](CC)C(=O)NCCCCC(=O)O)c1 | high |
| CSCC[C@H](NC(=O)[C@@H](NC(C)=O)C(C)C)C(=O)N[C@@H](CC(C)C)[C@@H](O)C[C@H](C(=O)N[C@@H](C)C(=O)N[C@@H](CCC(=O)O)C(=O)N[C@@H](Cc1ccccc1)C(=O)O)C(C)C (HELM PEPTIDE1{[ac].V.M.[CC(C)C[C@H](N[*:1])[C@@H](O)C[C@H](C(=O)[*:2])C(C)C].A.E.F}$$$$V2.0) | low |
| CC(C)C[C@H](NC(=O)C(O)c1cccc2ccccc12)[C@@H](O)C[C@H](C(=O)N[C@@H](C)C(=O)N[C@@H](CCC(=O)O)C(=O)N[C@@H](Cc1ccccc1)C(=O)O)C(C)C (stereo partly specified) | high |
